- ASSAYED SYSTEM: RPE65 (Mus musculus)
- Sequence (Q91ZQ5 whole entry): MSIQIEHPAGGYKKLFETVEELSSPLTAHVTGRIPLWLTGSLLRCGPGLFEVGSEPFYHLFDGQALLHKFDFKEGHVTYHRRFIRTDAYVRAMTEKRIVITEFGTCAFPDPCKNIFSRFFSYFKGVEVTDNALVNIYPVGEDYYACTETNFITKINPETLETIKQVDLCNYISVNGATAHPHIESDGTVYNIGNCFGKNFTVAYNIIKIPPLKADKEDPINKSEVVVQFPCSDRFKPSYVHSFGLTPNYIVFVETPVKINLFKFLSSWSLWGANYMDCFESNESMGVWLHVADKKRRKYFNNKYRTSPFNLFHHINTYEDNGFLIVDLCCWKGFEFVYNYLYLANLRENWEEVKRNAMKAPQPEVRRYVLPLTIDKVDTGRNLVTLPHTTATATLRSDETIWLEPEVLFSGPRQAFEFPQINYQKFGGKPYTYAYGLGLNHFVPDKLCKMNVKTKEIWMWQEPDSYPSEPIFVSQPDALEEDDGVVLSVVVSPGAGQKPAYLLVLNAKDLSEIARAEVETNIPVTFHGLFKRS
- EXPERIMENTAL SETUP: 10 mg/kg IP, BALB/cJ mice
READOUT LABEL: RPE65 inhibition in vivo (in words)

- COMPOUND: "CC(CCN)c1cccc(OCC2CCCCC2)c1 (stereo not shown) [16b]"
  ASSAYED SYSTEM: "RPE65 (Mus musculus)"
  TEST VALUE: "minor RPE65 inhibition"
- COMPOUND: "CC(CN)Cc1cccc(OCC2CCCCC2)c1 (stereo not shown) [16c]"
  ASSAYED SYSTEM: "RPE65 (Mus musculus)"
  TEST VALUE: "minor RPE65 inhibition"

---

- EXPERIMENT DESCRIPTION: in vivo
- EXPERIMENTAL SETUP: C57BL/6J, mouse, serum, intraperitoneal, 10 mg/kg
READOUT LABEL: concentration at 24 h (nM)
The reply should contain only the number, in nM.

Recorded concentration at 24 h for CNCCC(O)c1cccc(OCC2CCCCC2)c1 (stereo not shown) [16e] , please?
0
